- tested target: acetylcholinesterase from Electrophorus electricus, type VI-S (AChE) (Electrophorus electricus, UniProt O42275)
- Sequence (O42275 24-633): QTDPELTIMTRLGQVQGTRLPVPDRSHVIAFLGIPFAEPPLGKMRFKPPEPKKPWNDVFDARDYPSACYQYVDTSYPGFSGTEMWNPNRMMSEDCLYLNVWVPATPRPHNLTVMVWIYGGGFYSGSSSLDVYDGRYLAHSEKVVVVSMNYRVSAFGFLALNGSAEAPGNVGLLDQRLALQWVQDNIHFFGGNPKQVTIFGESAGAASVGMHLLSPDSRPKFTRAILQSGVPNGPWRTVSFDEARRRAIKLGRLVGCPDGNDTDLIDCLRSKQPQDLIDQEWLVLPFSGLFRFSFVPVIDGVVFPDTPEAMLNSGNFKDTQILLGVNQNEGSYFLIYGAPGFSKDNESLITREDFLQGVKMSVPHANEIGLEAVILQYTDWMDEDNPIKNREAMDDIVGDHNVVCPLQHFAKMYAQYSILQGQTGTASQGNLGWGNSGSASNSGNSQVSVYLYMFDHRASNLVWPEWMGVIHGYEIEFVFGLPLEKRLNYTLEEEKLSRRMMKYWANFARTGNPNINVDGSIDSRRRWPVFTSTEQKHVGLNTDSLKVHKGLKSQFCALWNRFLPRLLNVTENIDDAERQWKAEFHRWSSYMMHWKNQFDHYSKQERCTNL
readout type: IC50
Hi, when you answer, please include the unit after the number. Thanks!

Request: Which measured IC50 value corresponds to CN(C)C(=O)Oc1cccc([N+](C)(C)C)c1 [Neostigmine, neostigmine bromide, reference compound] ?
Response: 0.17 µM

----------
- tested target: COX-1 (ovine) (Ovis aries, UniProt P05979)
- Construct: purchased Cayman Chemical, Ann Arbor, MI, USA 701050
- Sequence (P05979 25-600): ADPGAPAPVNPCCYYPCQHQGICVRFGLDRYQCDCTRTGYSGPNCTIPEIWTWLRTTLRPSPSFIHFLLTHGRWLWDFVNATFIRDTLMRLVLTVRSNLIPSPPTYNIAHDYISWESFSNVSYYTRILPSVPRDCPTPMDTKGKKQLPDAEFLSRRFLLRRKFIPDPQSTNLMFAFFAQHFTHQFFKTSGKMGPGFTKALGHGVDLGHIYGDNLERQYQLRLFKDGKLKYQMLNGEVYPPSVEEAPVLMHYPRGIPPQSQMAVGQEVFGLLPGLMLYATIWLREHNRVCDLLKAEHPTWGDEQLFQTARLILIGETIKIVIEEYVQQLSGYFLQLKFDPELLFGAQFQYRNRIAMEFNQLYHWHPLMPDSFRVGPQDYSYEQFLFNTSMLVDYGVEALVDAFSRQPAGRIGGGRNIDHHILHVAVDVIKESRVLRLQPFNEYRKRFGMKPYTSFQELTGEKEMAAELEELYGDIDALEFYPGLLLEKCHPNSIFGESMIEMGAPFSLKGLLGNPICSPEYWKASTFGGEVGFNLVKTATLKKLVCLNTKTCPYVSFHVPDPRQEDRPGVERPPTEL
- test protocol: COX colorimetric inhibitor screening assay, COX-1
- Assay type: biochemical
readout type: IC50 (µM)
Unit µM implied. Number only.

Request: # query: IC50 of entry `COc1cc(-c2[o+]c3cc(O)cc(O)c3cc2O)cc(OC)c1O`
Response: 12.4

Request: Another compound to check: COc1cc(-c2[o+]c3cc(O)cc(O)c3cc2OC2OC(CO)C(O)C(O)C2O)cc(OC)c1O (stereo not drawn) [Mv 3-glc, malvidin 3-O-glucoside]
Response: 74.8

Request: Please do the same for COc1cc(-c2[o+]c3cc(O)cc(OC4OC(CO)C(O)C(O)C4O)c3cc2OC2OC(CO)C(O)C(O)C2O)cc(OC)c1O (stereo not drawn) [Mv 3,5-diglc, malvidin 3,5-O-diglucoside] as well.
Response: 90.4

----------
- tested target: Butyrylcholinesterase from equine serum (BChE) (Equus caballus)
- Construct: Butyrylcholinesterase from equine serum (BChE)
- Sequence (P81908 whole entry): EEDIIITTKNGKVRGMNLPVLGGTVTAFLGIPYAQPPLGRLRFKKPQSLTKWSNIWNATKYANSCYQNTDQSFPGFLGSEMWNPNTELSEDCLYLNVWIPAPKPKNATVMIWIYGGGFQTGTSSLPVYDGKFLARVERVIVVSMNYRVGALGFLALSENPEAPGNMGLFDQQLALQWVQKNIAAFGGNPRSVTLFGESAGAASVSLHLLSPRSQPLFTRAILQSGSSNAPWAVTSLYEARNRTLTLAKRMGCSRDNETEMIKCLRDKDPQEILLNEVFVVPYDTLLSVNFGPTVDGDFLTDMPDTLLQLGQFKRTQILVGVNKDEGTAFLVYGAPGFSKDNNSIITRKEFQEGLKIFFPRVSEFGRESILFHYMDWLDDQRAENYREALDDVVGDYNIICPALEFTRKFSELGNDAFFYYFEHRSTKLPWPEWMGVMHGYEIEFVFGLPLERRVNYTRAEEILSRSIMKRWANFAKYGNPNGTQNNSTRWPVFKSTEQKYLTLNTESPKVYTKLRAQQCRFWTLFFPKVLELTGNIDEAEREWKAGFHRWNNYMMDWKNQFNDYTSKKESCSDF
- test protocol: Butyrylcholinesterase inhibition assay (Ellman method, modified)
- assay context: positive control
readout type: pIC50
FYI, pIC50 means -log10 of a concentration in mol per litre.

Request: Reported pIC50, compound CN(C)C(=O)Oc1cccc([N+](C)(C)C)c1 [Neostigmine, neostigmine bromide, reference compound] : ____
Response: 4.69
